SYSTEM_TESTED: Vitamin D3 receptor (Homo sapiens)
ASSAY_SUMMARY: qHTS assay for small molecule antagonists of vitamin D receptor signaling (AID 588541)
TEST_PARAMETERS: HEK293T VDR-UAS-bla, beta-lactamase ratio, antagonist mode; series mostly up to 76.7 µM
Results filed as inconclusive are left out. Active and inactive are the calls of the source. Calls come from the whole dose curve.
Outcome (select one): active, inactive

Entry Clc1ccc([C@@]2(Cn3cncn3)C[C@@H](Br)CO2)c(Cl)c1 : call = ? inactive

Same question, CC1(C)[C@H](C(=O)O[C@H](C#N)c2cccc(Oc3ccccc3)c2)[C@@H]1/C=C(\Cl)C(F)(F)F this time inactive

Also check Brc1ccc(Br)cc1 inactive

Let us now turn to CC1=NNC(=O)N(/N=C/c2cccnc2)C1 inactive

What about this compound? CNC(=O)Oc1cc(C)c(SC)c(C)c1 inactive

Now try CCNc1nc(NC(C)C)nc(OC)n1 . inactive

Then what about the compound CNC(=O)Oc1cccc(N=CN(C)C)c1 ? inactive

Could you do the same for CON(C)C(=O)Nc1ccc(Cl)c(Cl)c1 , please? inactive

Consider next the compound CCOP(=O)(OCC)Oc1ccc2c(C)c(Cl)c(=O)oc2c1 in the same way. inactive

Continue with CC(C)Oc1cc(-n2nc(C(C)(C)C)oc2=O)c(Cl)cc1Cl inactive

Further, for O=P(O)(O)CN(CP(=O)(O)O)CP(=O)(O)O ? inactive

Now consider [Ga]#[As] and answer again. inactive

Do the same for CC(=NC#N)N(C)Cc1ccc(Cl)nc1 please inactive

For COC(=O)c1c(C(F)F)nc(C(F)(F)F)c(C2=NCCS2)c1CC(C)C then? inactive

Next record, please: CCOP(=O)(NC(C)C)Oc1ccc(S(C)(=O)=O)c(C)c1 (stereo unspecified) inactive

What about this compound? CCCCN(CC)c1c([N+](=O)[O-])cc(C(F)(F)F)cc1[N+](=O)[O-] inactive

Please give the result for FC(F)(F)c1ccc(Cl)cc1 too. inactive

Try this compound next: CCOP(=O)(SC(C)CC)SC(C)CC (stereo unspecified) inactive

Would you mind doing CC1(C)C(C(=O)OC(C#N)c2cccc(Oc3ccccc3)c2)C1(C)C (stereo unspecified) as well? inactive

And the next one, CC1(C(=O)Nc2ccc(O)c(Cl)c2Cl)CCCCC1 ? inactive

One more compound: CCCCCCCCn1sccc1=O active

Subsequent entry: O=Cc1cccc(Oc2ccccc2)c1 inactive

Request: CC(Oc1cccc(Cl)c1)C(=O)O (stereo unspecified) inactive

Check CCOC(=O)C(Cl)Cc1cc(-n2nc(C)n(C(F)F)c2=O)c(F)cc1Cl (stereo unspecified) too. inactive

How about Nc1cccc(Cl)c1Cl ? inactive

What about Cc1cc(C)nc(NC(=O)NS(=O)(=O)c2ccccc2C(=O)OC2COC2)n1 ? inactive

###

ASSAY_SUMMARY: qHTS assay for cell viability of HEK293 cells (AID 743288); note: % is set by controls: 0 for no effect and ±100 for the full control effect; nearly all actives have a fitted effect of over 50% in size
TEST_PARAMETERS: ATP luminescence (CellTiter-Glo), 18 h; hits give low values
Records with an inconclusive call do not appear.
QUANTITY_MEASURED: max response (%)
Hi! Could you send only the number? It should be in %, unit omitted.

Give its max response value. Item: CCC[CH2][Sn](=[O])[CH2]CCC -6.83

And O=[N+]([O-])c1ccc(Oc2ccc(Cl)cc2Cl)cc1 ? -5.28

What do you get for O=C(O)C1C(C(=O)O)C2(Cl)C(Cl)=C(Cl)C1(Cl)C2(Cl)Cl (stereo not drawn) ? 0.0125

C=C(C)C(=O)OCC(CC)CCCC (stereo not drawn) , same question. 2.46

And Nc1ccc([N+](=O)[O-])cc1Cl ? -1.89

Consider next the molecule C=C(C)CN(CC)c1c([N+](=O)[O-])cc(C(F)(F)F)cc1[N+](=O)[O-] in the same way. -3.14

What do we get for Cc1cccc2sc3nncn3c12 ? -3.66

Ok, now CC1(c2ccc(Oc3ccccc3)cc2)OC(=O)N(Nc2ccccc2)C1=O (stereo not drawn) -20.8

And what about the molecule CC(Oc1cc(Cl)c(Cl)cc1Cl)C(=O)O (stereo not drawn) ? 0.242

Next molecule up: CC(C)=C[C@@H]1[C@@H](C(=O)OCN2C(=O)C3=C(CCCC3)C2=O)C1(C)C -11.5

Moving on to CON=C(C(=O)OC)c1ccccc1CO/N=C(\C)c1cccc(C(F)(F)F)c1 -22.9

Same question, COCc1cnc(C2=NC(C)(C(C)C)C(=O)N2)c(C(=O)O)c1 (stereo not drawn) this time -3.54

Similarly, CNC(=O)Oc1cccc2c1OC(C)(C)C2O (stereo not drawn) ? -0.251
